Task for the reader: assign each of the following molecules its reported max response.
test system: KB-3-1; assay: Cytotoxic Profiling of Annotated Libraries Using Quantitative High-Throughput Screening (AID 1296008); details: Five cell lines viability, CellTiter-Glo ATP luminescence, 48-72 h; active compounds read low; note: % is set by controls: 0 for no effect and ±100 for the full control effect; nearly all actives have a fitted effect of over 60% in size
Inconclusive results are not listed.
Reply with just the number (in %).

Ask | I'm curious: which max response was measured for C[C@]12CCC(=O)C=C1CC[C@@H]1[C@@H]2[C@@H](O)C[C@]2(C)C(=O)CC[C@@H]12 tested on KB-3-1?
Reply | 6.55

Ask | I'm curious: which max response was measured for CC[C@H]1C2CC3[C@@H]4N(C)c5ccccc5[C@]45C[C@@H]([C@H]2[C@H]5O)N3[C@H]1O tested on KB-3-1?
Reply | 2.51

Ask | I'm curious: which max response was measured for Cc1cccc(NC(=O)NC2N=C(c3ccccc3)c3ccccc3N(CC(=O)c3ccccc3C)C2=O)c1 (stereo not given) tested on KB-3-1?
Reply | 7.53

Ask | I'm curious: which max response was measured for CCOP(=S)(OCC)SCSc1ccc(Cl)cc1 tested on KB-3-1?
Reply | -9.26

Ask | I'm curious: which max response was measured for C[C@@H]1[C@@H]2Cc3ccc(O)cc3[C@@]1(C)CCN2CCc1ccccc1 tested on KB-3-1?
Reply | -19
